# SYSTEM TESTED: T1, DFNB31_1, Q9P202
# T1 sequence (Q9P202 135-233, limits assumed, looked up): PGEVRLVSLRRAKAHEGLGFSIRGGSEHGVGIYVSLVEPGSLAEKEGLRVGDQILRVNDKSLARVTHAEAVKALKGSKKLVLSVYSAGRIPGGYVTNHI
# ASSAY INFO: holdup assay
# Parameters: key: below the threshold = too weak to quantify, mostly under pKd 3.1 to 4
# TEST SETTINGS: plain residues with an end cap or a label only (N-terminal biotin on a linker: ttds)
REPORTED ENDPOINT: pKd
Returns: the value as a bare number; no unit string appended.

// solved cases for pKd follow
PKTPPTDTSV [KIR3DL3, Q8N743] = 3.69
GQDSREETQL [KCNT2, Q6UVM3] = 3.82

Task: Reported pKd, binder SVWLRKETRV [CYSLTR2, Q9NS75] : ____
Output: 4.03

Task: Reported pKd, binder IDNDTESTAL [ARHGAP17, Q68EM7] : ____
Output: 3.84

Value source: paper PMC9482650
